System: Rice (Kinmaze)
ASSAY: Rice seedlings at second leaf stage grown in liquid culture medium with various herbicidal compounds and p-(t-butyl)benzoic acid
Assay type: in vivo
PARTICULARS: herbicidal compound at ppm of Table 3, with or without p-(t-butyl)benzoic acid 3 ppm; after 14 days
The entries below come with measured Living mass Root values attached.
MEASURED METRIC: Living mass Root (g)

{"COMPOUND": "CCN(C(=O)n1nnn(-c2ccccc2Cl)c1=O)C1CCCCC1 [compound 7, Fentrazamide]", "EXPERIMENTAL SYSTEM": "Rice (Kinmaze)", "RECORDED MEASUREMENT": 0.05}
{"COMPOUND": "CCN(CC)C(=O)SCc1ccc(Cl)cc1", "EXPERIMENTAL SYSTEM": "Rice (Kinmaze)", "RECORDED MEASUREMENT": 0.18}
{"COMPOUND": "CCCCOCN(C(=O)CCl)c1c(CC)cccc1CC", "EXPERIMENTAL SYSTEM": "Rice (Kinmaze)", "RECORDED MEASUREMENT": 0.09}
{"COMPOUND": "COC(=O)c1ccccc1CS(=O)(=O)NC(=O)Nc1nc(OC)cc(OC)n1", "EXPERIMENTAL SYSTEM": "Rice (Kinmaze)", "RECORDED MEASUREMENT": 0.05}
{"COMPOUND": "CCOC(=O)c1cnn(C)c1S(=O)(=O)NC(=O)Nc1nc(OC)cc(OC)n1", "EXPERIMENTAL SYSTEM": "Rice (Kinmaze)", "RECORDED MEASUREMENT": 0.04}
